Listing of recorded log10 IC50 by entry.
- assay target: P2X purinoceptor 7 (Rattus norvegicus)
- Sequence (Q64663 whole entry): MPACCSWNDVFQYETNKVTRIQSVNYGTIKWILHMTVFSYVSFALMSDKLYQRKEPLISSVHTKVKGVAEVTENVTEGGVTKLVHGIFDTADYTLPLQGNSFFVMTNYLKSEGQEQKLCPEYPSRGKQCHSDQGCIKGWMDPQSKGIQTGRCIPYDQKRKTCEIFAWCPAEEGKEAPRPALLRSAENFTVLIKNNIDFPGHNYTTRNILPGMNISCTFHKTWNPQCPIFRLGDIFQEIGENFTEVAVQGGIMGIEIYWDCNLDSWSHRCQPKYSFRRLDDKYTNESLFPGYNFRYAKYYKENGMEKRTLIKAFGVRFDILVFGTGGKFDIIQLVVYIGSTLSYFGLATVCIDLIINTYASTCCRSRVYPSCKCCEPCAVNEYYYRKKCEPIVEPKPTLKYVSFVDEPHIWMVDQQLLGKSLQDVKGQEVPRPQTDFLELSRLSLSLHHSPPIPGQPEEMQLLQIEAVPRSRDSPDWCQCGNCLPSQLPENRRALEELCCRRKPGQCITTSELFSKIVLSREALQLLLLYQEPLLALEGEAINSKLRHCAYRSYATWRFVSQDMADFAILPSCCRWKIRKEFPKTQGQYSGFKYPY
- method: Antagonist activity at rat recombinant P2X7 receptor assessed as inhibition of BzATP induced calcium flux by FLIPR assay
// do not treat as linear: log10 of IC50, unit nM

Below: 5 compounds and their reported log10 IC50.
CN(C)Cc1ccccc1N=C(NC#N)N1CCN(C(=O)Nc2ccc(Cl)cc2)C(c2ccccc2)C1 (centres undefined)	3.03
Cc1ccccc1N=C(NC#N)N1CCN(C(=O)Nc2ccc(Cl)cc2)C(c2ccccc2)C1 (centres undefined)	1.98
N#CNC(=Nc1cccc2[nH]ccc12)N1CCN(C(=O)Nc2ccc(Cl)cc2)C(c2ccccc2)C1 (centres undefined)	1.75
COc1ccc(NC(=O)N2CCN(C(=Nc3ccccc3C)NC#N)CC2c2ccccc2)cc1OC (centres undefined)	2.25
Cc1ccc2c(N=C(NC#N)N3CCN(C(=O)Nc4ccc(Cl)cc4)CC3C(C)C)cccc2n1 (centres undefined)	2.18

Request: Item under review: Cc1ccccc1NC(=O)N1CCN(C(=O)Nc2ccc(Cl)cc2)C(c2ccccc2)C1 (centres undefined) . Reported log10 IC50?
Result: 2.79

---

- Test system: Blood
- method: Inhibition of IL18 release in LPS/ATP stimulated human whole blood
- Type: functional, tissue-based
quantity name: pIC50
On this scale, pIC50 is minus log10 of a concentration expressed in M (mol/L).

Request: Item under review: Cc1ccccc1N=C(NC#N)N1CCN(C(=O)Nc2ccc(Cl)cc2)C(c2ccccc2)C1 (stereo unspecified) . Reported pIC50?
Result: 5.90

---

Listing of recorded pIC50 by entry.
- assay target: P2X purinoceptor 7 (Homo sapiens)
- method: Antagonist activity at human recombinant P2X7 receptor assessed as inhibition of BzATP induced calcium flux by FLIPR assay
On this scale, pIC50 is minus log10 of a concentration expressed in M (mol/L).

Below: 4 molecules and their reported pIC50.
Cc1ccc2c(N=C(NC#N)N3CCN(C(=O)Nc4ccc(Cl)cc4)CC3C(C)C)cccc2n1 (stereo not given)	7.03
Cc1ccccc1N=C(NC#N)N1CCN(S(=O)(=O)c2ccc(Cl)cc2)C(c2ccccc2)C1 (stereo not given)	6.27
CN(C)Cc1ccccc1N=C(NC#N)N1CCN(C(=O)Nc2ccc(Cl)cc2)C(c2ccccc2)C1 (stereo not given)	6.32
CC(C)C1CN(C(=O)Nc2cccc(F)c2)CCN1C(=Nc1cccc2occc12)NC#N (stereo not given)	4.60

Please examine the following record next.
Request: Test system P2X purinoceptor 7 (Homo sapiens); read-out pIC50; what value for COc1ccc(CC(=O)N2CCN(C(=Nc3ccccc3C)NC#N)CC2c2ccccc2)cc1OC (stereo not given) ?
Result: 6.20

---

Listing of recorded half-life by entry.
- method: Half life in rat at 5 mg/kg, iv
- Format: ADME, organism-based
- Parameters: dose 5 mg/kg, route intravenous
- test settings: in vivo
Write it as a number; the unit h goes unstated.

Cc1ccccc1N=C(NC#N)N1CCN(C(=O)Nc2ccc(Cl)cc2)C(c2ccccc2)C1 (configuration not stated)	0.9

Request: Item under review: Cc1ccc2c(N=C(NC#N)N3CCN(C(=O)Nc4ccc(Cl)cc4)CC3C(C)C)cccc2n1 (configuration not stated) . Reported half-life?
Result: 4.4

---

Listing of recorded clearance by entry.
- method: Plasma clearance in rat at 5 mg/kg, iv
- Type: ADME, organism-based
- Parameters: dose 5 mg/kg, route intravenous
Write it as a number; the unit L/h/kg goes unstated.

Below: 2 compounds and their reported clearance.
Cc1ccc2c(N=C(NC#N)N3CCN(C(=O)Nc4ccc(Cl)cc4)CC3C(C)C)cccc2n1 (stereo not drawn)	1.4
CC(C)C1CN(C(=O)Nc2ccc(Cl)cc2)CCN1C(=Nc1cccc2ncccc12)NC#N (stereo not drawn)	3.2

Request: Item under review: Cc1ccccc1N=C(NC#N)N1CCN(C(=O)Nc2ccc(Cl)cc2)C(c2ccccc2)C1 (stereo not drawn) . Reported clearance?
Result: 4.1

---

- method: Metabolic stability in rat liver microsomes assessed as compound remaining after 1 hr
- Type: ADME, Microsome
- test settings: read-out: Stability
Listing of recorded remaining at 1 h by entry.
Write it as a number; the unit % goes unstated.

Below: 3 molecules and their reported remaining at 1 h.
CC(C)C1CN(C(=O)Nc2ccc(Cl)cc2)CCN1/C(=N/C#N)Nc1cccc2nc(F)ccc12 (centres undefined)	60
Cc1ccc(N/C(=N\C#N)N2CCN(C(=O)Nc3ccc(Cl)cc3)CC2C(C)C)c2cccnc12 (centres undefined)	64
Cc1ccc2c(N=C(NC#N)N3CCN(C(=O)Nc4ccc(Cl)cc4)CC3C(C)C)cccc2n1 (centres undefined)	74

Request: Item under review: CC(C)C1CN(C(=O)Nc2ccc(Cl)cc2)CCN1C(=Nc1cccc2ncccc12)NC#N (centres undefined) . Reported remaining at 1 h?
Result: 43

---

- assay target: P2X purinoceptor 7 (Homo sapiens, UniProt Q99572)
- method: Antagonist activity at human recombinant P2X7 receptor assessed as inhibition of BzATP induced calcium flux by FLIPR assay
quantity name: pIC50
On this scale, pIC50 is minus log10 of a concentration expressed in M (mol/L).

Below: 3 compounds and their reported pIC50.
CC(C)C1CN(C(=O)Nc2ccc(Cl)cc2)CCN1C(=Nc1cccc2ncccc12)NC#N (stereo not given)	7.40
Cc1ccccc1NC(=O)N1CCN(C(=O)Nc2ccc(Cl)cc2)C(c2ccccc2)C1 (stereo not given)	6.11
N#CNC(=Nc1cccc2[nH]ccc12)N1CCN(C(=O)Nc2ccc(Cl)cc2)C(c2ccccc2)C1 (stereo not given)	6.89

Please examine the following record next.
Request: Item under review: CC(C)C1CN(C(=O)Nc2ccc(Cl)cc2)CCN1/C(=N/C#N)Nc1cccc2[nH]ccc12 (stereo not given) . Reported pIC50?
Result: 7.35

---

Listing of recorded log10(IC50) by entry.
- Tested on: Blood
- method: Inhibition of IL1-beta release in LPS/ATP stimulated human whole blood
- Format: functional, tissue-based
// do not treat as linear: log10 of IC50, unit nM

Below: 6 compounds and their reported log10(IC50).
CC(C)C1CN(C(=O)Nc2ccc(Cl)cc2)CCN1C(=Nc1cccc2ncccc12)NC#N (configuration not stated)	2.08
CC(C)C1CN(C(=O)Nc2ccc(Cl)cc2)CCN1/C(=N/C#N)Nc1cccc2[nH]ccc12 (configuration not stated)	2.67
CC(C)C1CN(C(=O)Nc2cccc(F)c2)CCN1C(=Nc1cccc2c1CCCN2)NC#N (configuration not stated)	2.66
CC(C)C1CN(C(=Nc2cccc3ncccc23)NC#N)CCN1C(=O)Nc1ccc(Cl)cc1 (configuration not stated)	2.94
CC(C)C1CN(C(=O)Nc2cccc(F)c2)CCN1C(=Nc1cccc2[nH]ncc12)NC#N (configuration not stated)	3.20
CC(C)C1CN(C(=O)Nc2ccc(Cl)cc2)CCN1C(=Nc1cccc2c1CCNC2)NC#N (configuration not stated)	2.32

Please examine the following record next.
Request: Test system Blood; read-out log10(IC50); what value for Cc1ccccc1N/C(=N\C#N)N1CCN(C(=O)Nc2ccc(Cl)cc2)C(C(C)C)C1 (configuration not stated) ?
Result: 2.99

---

- assay target: P2X purinoceptor 7 (Homo sapiens, UniProt Q99572)
- Sequence (Q99572 whole entry): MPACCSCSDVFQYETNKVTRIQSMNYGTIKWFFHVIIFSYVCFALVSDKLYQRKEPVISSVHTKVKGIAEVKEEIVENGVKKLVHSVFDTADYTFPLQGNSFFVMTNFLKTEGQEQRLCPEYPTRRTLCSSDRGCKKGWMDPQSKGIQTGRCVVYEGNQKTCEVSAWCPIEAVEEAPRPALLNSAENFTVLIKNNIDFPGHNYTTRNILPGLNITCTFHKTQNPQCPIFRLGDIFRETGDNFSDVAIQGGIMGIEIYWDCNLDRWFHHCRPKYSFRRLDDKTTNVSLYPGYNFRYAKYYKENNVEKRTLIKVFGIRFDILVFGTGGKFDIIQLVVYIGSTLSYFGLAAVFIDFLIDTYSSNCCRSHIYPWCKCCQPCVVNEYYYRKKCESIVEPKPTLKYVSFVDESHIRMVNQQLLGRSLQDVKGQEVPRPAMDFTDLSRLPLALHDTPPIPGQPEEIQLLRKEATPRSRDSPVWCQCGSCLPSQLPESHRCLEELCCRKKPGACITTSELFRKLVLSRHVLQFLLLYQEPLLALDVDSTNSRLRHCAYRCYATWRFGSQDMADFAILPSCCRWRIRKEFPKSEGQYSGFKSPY
- method: Antagonist activity at human recombinant P2X7 receptor assessed as inhibition of BzATP induced calcium flux by FLIPR assay
Listing of recorded pIC50 by entry.
On this scale, pIC50 is minus log10 of a concentration expressed in M (mol/L).

CC(C)C1CN(C(=O)Nc2ccc(Cl)cc2)CCN1C(=Nc1cccc2c1CCNC2)NC#N (configuration not stated)	6.96
Cc1ccccc1N/C(=N\C#N)N1CCN(C(=O)Nc2ccc(Cl)cc2)C(C(C)C)C1 (configuration not stated)	6.95
Cc1ccccc1N=C(NC#N)N1CCN(C(=O)N(C)c2ccc(Cl)cc2)C(c2ccccc2)C1 (configuration not stated)	5.99
CC(C)C1CN(C(=Nc2cccc3ncccc23)NC#N)CCN1C(=O)Nc1ccc(Cl)cc1 (configuration not stated)	7.17
Cc1ccccc1N=C(NC#N)N1CCN(C(=O)Nc2ccc(Cl)cc2)C(c2ccccc2)C1 (configuration not stated)	6.88

Request: Item under review: Cc1ccccc1N=C(NC#N)N1CCN(C(=O)Nc2ccc(Cl)cc2)CC1C(C)C (configuration not stated) . Reported pIC50?
Result: 7.22

Request: Item under review: N#C/N=C(\Nc1cccnc1)N1CCN(C(=O)Nc2ccc(Cl)cc2)C(c2ccccc2)C1 (configuration not stated) . Reported pIC50?
Result: 5.88
